- assayed_system: Cytochrome P450 1A2 (Homo sapiens)
- test_details: p450-cyp1a2 (AID 410)
- condition_context: recombinant CYP1A2, luciferin-ME demethylation, luminescence; series mostly up to 57 µM
Records with an inconclusive call do not appear. Active and inactive are the calls of the source. The call rests on the fitted dose curve.
Mark one answer only. Choices: active, inactive

The following molecules have reported results that may help.
{"molecule": "CC[C@@H]1[C@H]2CCCCN3[C@@H]2[C@@H](C[C@H]3[C@@H]2C[C@H](C)C(=O)O2)[C@@H]2[C@H]1OC(=O)[C@H]2C", "assigned_class": "active"}
{"molecule": "CCc1c2c(nc3cccc(C(C)C)c13)-c1cccc(=O)n1C2", "assigned_class": "active"}
{"molecule": "Cc1cc(-c2cc(C)c(O)c(C(C)(C)C)c2)cc(C(C)(C)C)c1O", "assigned_class": "active"}
{"molecule": "CC(C)C[C@@H](CC(=O)N[C@@H](CCCN)CC(=O)N[C@@H]1CCNC[C@H]1C(=O)N[C@H](CC(=O)N[C@@H](CCC(=O)O)CC(=O)O)Cc1c[nH]c2ccccc12)NC(=O)[C@@H]1CCCC[C@H]1N", "assigned_class": "inactive"}
{"molecule": "COC(=O)[C@@]1(Cc2ccccc2)[C@H]2c3cc(C(=O)N4CCCC4)n(CC4CC4)c3C[C@H]2CN1C(=O)c1ccccc1", "assigned_class": "inactive"}

Tell me the assay call for COCC1C2CC[C@H]3C(OCc4ccc(F)cc4C(F)(F)F)OC[C@]4(C)[C@H]3C2=C(CN4C(=O)OC(C)(C)C)[C@H](C)C1COC (stereo partly drawn) please.
active

Tell me the assay call for O=c1c(O)c(-c2ccc(O)cc2)oc2cc(O)ccc12 please.
active

Tell me the assay call for COC(=O)C1(Cc2ccccc2)C=C2C(=C(C(C)C)C(=O)C2C)CN1 (stereo not drawn) please.
active

----------
- test_details: S16 Schwann cell PMP22 intronic element firefly luciferase assay (AID 624032); further: nearly all actives have a fitted effect of over 30% in size
- condition_context: S16 rat Schwann cells, PMP22 element FLuc, 24 h; series mostly up to 57.5 µM
Records with an inconclusive call do not appear. The source made the active and inactive calls. Calls come from the whole dose curve; as a rule, active = well fitted inhibition curve with a large enough effect; inconclusive = small, poorly fitted or top-dose-only effect; inactive = no such curve, though single readings can be large or run the other way.
Mark one answer only. Choices: active, inactive

{"molecule": "Cc1cnc(NC(=O)C2C(=O)c3ccccc3S(=O)(=O)N2C)s1 (stereo unspecified)", "assigned_class": "inactive"}
{"molecule": "O=C(O)Cc1sc(-c2ccc(Cl)cc2)nc1-c1ccccc1", "assigned_class": "inactive"}
{"molecule": "C=C[C@H]1CN2CCC1C[C@H]2[C@H](O)c1ccnc2ccc(OC)cc12 (stereo partly specified)", "assigned_class": "inactive"}
{"molecule": "CC1(C)CC1C(=O)N/C(=C/CCCCSCC(N)C(=O)O)C(=O)O (stereo unspecified)", "assigned_class": "inactive"}
{"molecule": "NC(=O)OC[C@@H]1[C@H](NC(=O)/C(=N/OCC(=O)O)c2csc(N)n2)C(=O)N1S(=O)(=O)O", "assigned_class": "inactive"}
{"molecule": "CC1=C(c2ccc(NN=C(C#N)C#N)cc2)NNC(=O)C1", "assigned_class": "inactive"}

Tell me the assay call for CC1(C)O[C@@H]2C[C@H]3[C@@H]4CCC5=CC(=O)C=C[C@]5(C)[C@H]4C(O)C[C@]3(C)[C@]2(C(=O)CO)O1 (stereo partly specified) please.
inactive

Tell me the assay call for Cn1cc(C(=O)[C@@H]2CCc3[nH]cnc3C2)c2ccccc21 please.
inactive

Tell me the assay call for CCCCC(=O)OCC(=O)[C@]1(O)Cc2c(O)c3c(c(O)c2[C@H](OC2CC(NC(=O)C(F)(F)F)C(O)C(C)O2)C1)C(=O)c1c(OC)cccc1C3=O (stereo partly specified) please.
active

Tell me the assay call for NC(=O)NC(CCC(=O)O)C(=O)O (stereo unspecified) please.
inactive

Tell me the assay call for O=C(O)[C@H]1C[C@@H](CP(=O)(O)O)CCN1 please.
inactive

Tell me the assay call for N#C/C(=C1/SCC(c2ccccc2Cl)S1)n1ccnc1 (stereo unspecified) please.
active

Tell me the assay call for CN1[C@@H]2CC[C@@H]1CC(OC(=O)[C@H](CO)c1ccccc1)C2 (stereo partly specified) please.
inactive

Tell me the assay call for CC1(C)OC[C@@H]2O[C@@]3(C(=O)O)OC(C)(C)O[C@@H]3[C@@H]2O1 please.
inactive

Tell me the assay call for C[S+](C)CC[C@H](N)C(=O)O please.
inactive

Tell me the assay call for CC(=O)CC(c1ccccc1)C1C(=O)Oc2ccccc2C1=O (stereo unspecified) please.
inactive

Tell me the assay call for COc1cccc2c1C(=O)c1c(O)c3c(c(O)c1C2=O)C[C@@](O)(C(=O)CO)C[C@@H]3OC1CC(N)C(O)C(C)O1 (stereo partly specified) please.
inactive

Tell me the assay call for NC(=O)C1CC2(NC(=O)NC2=O)c2cc(F)ccc2O1 (stereo unspecified) please.
inactive

Tell me the assay call for CC(=O)O[C@]1(C(C)=O)CCC2C3CCC4=CC(=O)CCC4(C)C3(F)C(O)CC21C (stereo partly specified) please.
inactive

Tell me the assay call for Nc1nc2[nH]cc(CCc3ccc(C(=O)NC(CCC(=O)O)C(=O)O)cc3)c2c(=O)[nH]1 (stereo unspecified) please.
inactive

Tell me the assay call for CCCCC/C(C=O)=C/c1ccccc1 please.
inactive

----------
- test_details: Cell Viability - LYMP2-011 (AID 969);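 further: cells exposed to compound for 24 hours; nearly all actives have a fitted effect of over 60% in size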; further: potency means the concentration at half of the fitted maximal effect
- condition_context: LYMP2-011 lymphoblastoid cells viability; series mostly up to 92.2 µM
Records with an inconclusive call do not appear. Calls of active or inactive are those of the source. Calls come from the whole dose curve; as a rule, active = well fitted cell-killing curve with a large enough effect; inconclusive = small, poorly fitted or top-dose-only effect; inactive = flat fitted curve, though single readings scatter.
parameter_measured: Potency

Recorded Potency, per entry:
{"compound": "Cc1cc(O)c(C(C)(C)C)cc1Sc1cc(C(C)(C)C)c(O)cc1C", "Potency": "39.8 µM (active)"}
{"compound": "O=[N+]([O-])c1cc([N+](=O)[O-])c2ccc(S(=O)(=O)O)cc2c1O", "Potency": "inactive"}
{"compound": "O=C(OCC(COC(=O)c1ccccc1)(COC(=O)c1ccccc1)COC(=O)c1ccccc1)c1ccccc1", "Potency": "inactive"}
{"compound": "O=C1OC2(c3cc(Br)c(O)c(Br)c3Oc3c2cc(Br)c(O)c3Br)c2c(Cl)c(Cl)c(Cl)c(Cl)c21", "Potency": "inactive"}
{"compound": "Cc1cc(Nc2ccc(O)cc2)ccc1N", "Potency": "50.1 µM (active)"}
{"compound": "Cc1cccc(O)c1C", "Potency": "inactive"}
{"compound": "CC(=O)Nc1ccc(C(=O)CCl)cc1", "Potency": "6.31 µM (active)"}
{"compound": "CCC(C)Nc1ccc(NC(C)CC)cc1 (stereo unspecified)", "Potency": "6.31 µM (active)"}

Would you mind telling me what Potency value was observed for C=C(C)c1ccccc1 ?
inactive

Would you mind telling me what Potency value was observed for CCCCCC/C(C=O)=C\c1ccccc1 ?
inactive

Would you mind telling me what Potency value was observed for CCCCCCCC[N+](CCCCCCCC)(CCCCCCCC)CCCCCCCC ?
6.31 µM (active)

----------
- assayed_system: Muscarinic acetylcholine receptor M1 (Rattus norvegicus) (UniProt P08482)
- Sequence (P08482 whole entry, looked up): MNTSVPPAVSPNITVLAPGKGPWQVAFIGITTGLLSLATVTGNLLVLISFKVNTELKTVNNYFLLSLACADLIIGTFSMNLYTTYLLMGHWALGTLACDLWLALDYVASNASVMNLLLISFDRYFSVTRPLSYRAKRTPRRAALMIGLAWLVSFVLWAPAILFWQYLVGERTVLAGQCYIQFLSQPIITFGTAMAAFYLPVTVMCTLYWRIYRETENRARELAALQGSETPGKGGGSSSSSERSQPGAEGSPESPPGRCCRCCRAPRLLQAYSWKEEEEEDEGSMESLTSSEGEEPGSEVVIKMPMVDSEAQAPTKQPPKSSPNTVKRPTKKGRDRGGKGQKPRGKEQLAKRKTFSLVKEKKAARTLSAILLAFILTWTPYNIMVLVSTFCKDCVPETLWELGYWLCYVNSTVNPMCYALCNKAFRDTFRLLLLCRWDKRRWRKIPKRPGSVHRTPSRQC
- test_details: qHTS Assay for Antagonists of Acetylcholine Muscarinic M1 Receptor: Kinetic Measurement of Intracellular Calcium Response (AID 943); further: nearly all actives have a fitted effect of over 75% in size
- condition_context: M1-expressing cells, kinetic intracellular calcium fluorescence; series mostly up to 35.3 µM
Records with an inconclusive call do not appear. Active and inactive are the calls of the source. Calls follow the shape of the dose curve; as a rule, active = well fitted inhibition curve with a large enough effect; inconclusive = small, poorly fitted or top-dose-only effect; inactive = no such curve, though single readings can be large or run the other way.
Mark one answer only. Choices: label 1 for active, label 0 for inactive

The following compounds have reported results that may help.
{"molecular_string": "FC(F)(F)c1cc(CO[C@@H]2CCCN[C@H]2c2ccccc2)cc(C(F)(F)F)c1", "assigned_class": "label 0"}
{"molecular_string": "CCCCCCCCCC(=O)N[C@@H](CN1CCOCC1)[C@@H](O)c1ccccc1", "assigned_class": "label 0"}
{"molecular_string": "O=C(/C=C\\c1ccc(O)cc1)c1ccc(O)cc1O", "assigned_class": "label 0"}
{"molecular_string": "CC1CCN(CC[C@@H]2CCCN2S(=O)(=O)c2cccc(O)c2)CC1", "assigned_class": "label 1"}

We now examine a further compound.
Tell me the assay call for CN1CCN([C@@H]2Cc3ccccc3Sc3ccc(Cl)cc32)CC1 please.
label 1

----------
- Test system: CP305
- test_details: qHTS profiling for inhibitors of Plasmodium falciparum proliferation (AID 504749); further: nearly all actives have a fitted effect of over 60% in size
- condition_context: P. falciparum in erythrocytes, SYBR Green DNA, 72 h; series mostly up to 28.7 µM
Results filed as inconclusive are left out. The source made the active and inactive calls. The call rests on the fitted dose curve; in most records, active means well fitted inhibition curve with a large enough effect; inconclusive means small, poorly fitted or top-dose-only effect; inactive means flat fitted curve, though single readings scatter.
Mark one answer only. Choices: active, inactive

Tell me the assay call for Cc1cc2nc3c(=O)[nH]c(=O)nc-3n(CC(O)C(O)C(O)COP(=O)(O)O)c2cc1C (stereo unspecified) please.
inactive

----------
- Tested on: DIV14
- test_details: qHTS profiling for inhibitors of Plasmodium falciparum proliferation (AID 504749); further: nearly all actives have a fitted effect of over 60% in size
- condition_context: P. falciparum in erythrocytes, SYBR Green DNA, 72 h; series mostly up to 28.7 µM
Inconclusive results are not listed. Active and inactive are the calls of the source. Calls follow the shape of the dose curve; as a rule, active = well fitted inhibition curve with a large enough effect; inconclusive = small, poorly fitted or top-dose-only effect; inactive = flat fitted curve, though single readings scatter.
Mark one answer only. Choices: active, inactive

The following compounds have reported results that may help.
{"compound": "O=C1NC(=O)C2C3C=CC(C3)C12 (stereo not given)", "assigned_class": "inactive"}
{"compound": "C[C@@H]1CCN(C(=O)[C@H](CCCNC(=N)N)NS(=O)(=O)c2cccc3c2NC[C@H](C)C3)[C@@H](C(=O)O)C1", "assigned_class": "inactive"}

Tell me the assay call for CCC(=O)O[C@]1(C(=O)CCl)[C@@H](C)CC2C3C[C@H](F)C4=CC(=O)C=CC4(C)[C@@]3(F)C(O)CC21C (stereo not given in full) please.
active

Tell me the assay call for O=C(OC[C@@H]1O[C@@](O)(COC(=O)c2cccnc2)[C@H](OC(=O)c2cccnc2)[C@H]1OC(=O)c1cccnc1)c1cccnc1 please.
inactive

Tell me the assay call for C=C1CCC(O)C/C1=C/C=C1\CCC[C@]2(C)[C@@H]([C@H](C)/C=C/[C@H](C)C(C)C)CC[C@@H]12 (stereo not given in full) please.
inactive

Tell me the assay call for Cc1ccc(/C=C2/C(=O)C3(C)CCC2C3(C)C)cc1 (stereo not given) please.
inactive

Tell me the assay call for CC(O)C1CCC2C3CCC4CC(O)CCC4(C)C3CCC12C (stereo not given) please.
inactive

Cited source for all entries: PubChem BioAssay (NCATS)
